# system_under_test: T1, human CD137-human Fc chimeric protein (Acro Biosystems cat no. 41B-H5258) (human, UniProt Q07011 24-186)
# T1 construct: Bought protein; The Octet Protein G and Biacore experiments name no catalogue number; also called human CD137Fc recombinant protein; human CD137-Fc recombinant protein; not shown: human IgG1 Fc tag
# protocol_details: HTRF binding assay
pEC50: −log10 of the molar value.
observed_property: pEC50

Worked examples, 2 binders total:
binder: Humabody VH 2.2 (VHH, human single VH domain) VH: EVQLVESGGGLVKPGGSLRVSCAASGFTFSDYYMSWFRQAPGKGLEWVSYISGSGDIIDYADSVKGRFTISRDNAKNSLYLQMNSLRAEDTAVYHCAKEDSRIPGTTDFDNWGQGTLVTVSSHHHHHH
pEC50: 9.04
--
binder: Humabody VH 2.1 (VHH, human single VH domain) VH: EVQLVESGGGLVKPGGSLRVSCAASGFTFSDYYMSWFRQAPGKGLEWVSYISGSGDIIDYADSVKGRFTISRDNAKNSLYLQMNNLRAEDTAVYHCAREDSRLTGTTDFDNWGQGTLVTVSSHHHHHH
pEC50: 8.43

(I) Humabody VH 2.8 (VHH, human single VH domain) VH: EVQLVESGGGLVKPGGSLRLSCAASGFAFSDYYMSWFRQAPGKGLEWVSHISGSGTTIDYADSVKGRFTISRDNAKNSLYLQMNSLRAEDTAVYHCAREDSRMPGTTDFDNWGQGTLVTVSSHHHHHH
(II) Humabody VH 2.14 (VHH, human single VH domain) VH: EVQLVESGGGLVKPGGSLRLSCAASGFTFSDYYMTWFRQAPGKGLEWISYISGSGDTIDYAESVKGRFTISRDNAKNSLYLQMNSLRAEDTAVYYCAREDIRMPGTTDFDHWGQGTLVTVSSHHHHHH
Identify the entry with the larger pEC50. Options: I and II Let me know the label of the one you choose.
II
(II: 8.92, I: 8.51)

The reported measurements were obtained from patent US20200362047A1.
